System: passive cutaneous anaphylactic (PCA) reaction
Experiment: Passive cutaneous anaphylactic (PCA) reaction, reagin-allergen combination, in rats
Format: in vivo
Conditions: Rattus norvegicus, oral, thirty minutes before intravenous allergen, read-out: ED50 (oral dose which produces 50% inhibition of the PCA reaction)
Property measured: log10 of ED50 (log10 of the value in mg/kg)
Each number you see is log10 of ED50, and the unit inside the log is mg/kg.

// for each compound below, give its log10 of ED50
1. O=C(Nc1nnn[nH]1)c1cc(Cl)ccc1O [Compound AD]
2. CC(=O)c1cc(Br)cc(C(=O)Nc2nnn[nH]2)c1O [CB]

1. 1.11
2. 1.81

* * *

Assay: Acute intravenous toxicity in mice
Conditions: mouse, in vivo, triethanolamine salt (T), 2% w/v test solution
Description: Mice were each treated intravenously with an aqueous solution of the triethanolamine salt or sodium salt of one of the compounds of formula I, and they were observed until there had been at least 3 consecutive days without any deaths. The LD50 figures obtained (doses lethal to 50% of mice tested) are shown below in Table V, expressed in mg/kg animal body weight. In Table V, "Na" means that the sodium salt was used and "T" means that the triethanolamine salt was used. […]
The label is 1.0 for LD50 below 600 mg/kg and 0.0 for LD50 equal to or exceeding 600 mg/kg.

# example entries with known answers
* O=C(Nc1nnn[nH]1)c1cccc(Br)c1O | 1.0
* CCC(C)c1cc(C(C)=O)c(O)c(C(=O)Nc2nnn[nH]2)c1 (stereo not shown) | 1.0
* COc1cccc(C(=O)Nc2nnn[nH]2)c1O | 1.0
* CCC(=O)c1cc(C)cc(C(=O)Nc2nnn[nH]2)c1O | 1.0
* CC(=O)c1cc(C(C)(C)C)cc(C(=O)Nc2nnn[nH]2)c1O | 1.0
* CC(=O)c1cc(C)cc(C(=O)Nc2nnn[nH]2)c1O | 1.0
* Cc1cccc(C(=O)Nc2nnn[nH]2)c1O | 0.0
* CC(=O)c1cc(C(=O)Nc2nnn[nH]2)c(O)c(C(C)=O)c1O | 0.0

hey, is LD50 for CC(=O)Nc1ccc(C(=O)Nc2nnn[nH]2)c(O)c1 lower than 600 mg/kg or not?
0.0

Queued: CC(C)(C)c1ccc(C(=O)Nc2nnn[nH]2)c(O)c1
1.0

What do we get for CSc1cccc(C(=O)Nc2nnn[nH]2)c1O ?
1.0

Check CC(=O)c1cc([N+](=O)[O-])cc(C(=O)Nc2nnn[nH]2)c1O too.
0.0

* * *

I'd appreciate it if you could supply ED50 values for the items below.
System: passive cutaneous anaphylactic (PCA) reaction
Assay: Passive cutaneous anaphylactic (PCA) reaction, reagin-allergen combination, in rats
Assay type: in vivo
Conditions: Rattus norvegicus, oral, thirty minutes before intravenous allergen, read-out: ED50 (oral dose which produces 50% inhibition of the PCA reaction)
Give bare numbers, in mg/kg.

Recorded results for 3 compounds are shown here.
• CCC(C)c1cc(C(C)=O)c(O)c(C(=O)Nc2nnn[nH]2)c1 (centres unmarked) = 1.8
• O=C(Nc1nnn[nH]1)c1cc(Br)ccc1O = 65
• CC(=O)c1cc(F)cc(C(=O)Nc2nnn[nH]2)c1O = 1.9

Proceed to the following item.
Provide value of ED50 for this record tested with passive cutaneous anaphylactic (PCA) reaction: COc1cccc(C(=O)Nc2nnn[nH]2)c1O
18

* * *

Tested on: passive cutaneous anaphylactic (PCA) reaction
Assay: Passive cutaneous anaphylactic (PCA) reaction, reagin-allergen combination, in rats
Format: in vivo
Conditions: Rattus norvegicus, intravenous, just before injection of allergen, read-out: ED100 (intravenous dose which produces 100% inhibition of the PCA reaction)
# label = rule met if ED100 >= 0.5 mg/kg else rule not met

• O=C(Nc1nnn[nH]1)c1cc([N+](=O)[O-])cc([N+](=O)[O-])c1O = rule not met
• N#Cc1ccc(O)c(C(=O)Nc2nnn[nH]2)c1 = rule not met
• CS(=O)(=O)c1cc(C(=O)Nc2nnn[nH]2)c(O)c(S(C)(=O)=O)c1 = rule met
• CCc1cc(C(C)=O)c(O)c(C(=O)Nc2nnn[nH]2)c1 = rule not met
• Cc1cc(C#N)c(O)c(C(=O)Nc2nnn[nH]2)c1 = rule met
• CCC(=O)c1cc(CC)cc(C(=O)Nc2nnn[nH]2)c1O = rule not met

Now look at this entry.
Item O=C(Nc1nnn[nH]1)c1cc(Br)cc(Br)c1O with ED100 of 0.5 mg/kg or above?
rule met

* * *

Exercise: for every item that follows, state its recorded inhibition in vivo at 100 mg/kg.
System: passive cutaneous anaphylactic (PCA) reaction
Experiment: Passive cutaneous anaphylactic (PCA) reaction, reagin-allergen combination, in rats
Type: in vivo
Settings: Rattus norvegicus, oral dose of 100 mg/kg, thirty minutes before intravenous allergen
Answers are plain numbers, in %.

// worked examples, inhibition in vivo at 100 mg/kg included
* CC(=O)c1cc(Br)cc(C(=O)Nc2nnn[nH]2)c1O | 66
* CC(C)N(C)S(=O)(=O)c1ccc(O)c(C(=O)Nc2nnn[nH]2)c1 | 20

State recorded inhibition in vivo at 100 mg/kg for all listed compounds.
1. CC(=O)c1cc(S(N)(=O)=O)cc(C(=O)Nc2nnn[nH]2)c1O
2. Nc1ccc(O)c(C(=O)Nc2nnn[nH]2)c1
3. CC(C)(C)c1ccc(C(=O)Nc2nnn[nH]2)c(O)c1
4. CSc1ccc(C(=O)Nc2nnn[nH]2)c(O)c1
5. N#Cc1cccc(C(=O)Nc2nnn[nH]2)c1O
6. Cc1ccc(C(=O)Nc2nnn[nH]2)c(O)c1
7. O=C(Nc1nnn[nH]1)c1cccc([N+](=O)[O-])c1O

1: 86; 2: 35; 3: 37; 4: 8; 5: 50; 6: 32; 7: 68

List reported inhibition in vivo at 100 mg/kg for each of these compounds:
1. CCC(=O)c1cc(C)cc(C(=O)Nc2nnn[nH]2)c1O
2. CS(=O)(=O)c1cc(C(=O)Nc2nnn[nH]2)c(O)c(S(C)(=O)=O)c1

[99, 29]

Give me inhibition in vivo at 100 mg/kg for each of these compounds, listed below.
1. O=C(Nc1nnn[nH]1)c1cc(Br)cc(Br)c1O
2. O=C(Nc1nnn[nH]1)c1cccc(Br)c1O
3. CCC(=O)c1cc(CC)cc(C(=O)Nc2nnn[nH]2)c1O
4. CC(=O)c1cc(F)cc(C(=O)Nc2nnn[nH]2)c1O
5. O=C(Nc1nnn[nH]1)c1ccc([N+](=O)[O-])cc1O
6. COc1ccc(C(=O)Nc2nnn[nH]2)c(O)c1
7. N#Cc1ccc(O)c(C(=O)Nc2nnn[nH]2)c1
8. CC(=O)c1cc([N+](=O)[O-])cc(C(=O)Nc2nnn[nH]2)c1O

65
69
41
62
18
8
89
54

Please supply inhibition in vivo at 100 mg/kg for each of the following items, keeping them in order.
1. O=C(O)c1cccc(C(=O)Nc2nn[nH]n2)c1O
2. O=Cc1cccc(C(=O)Nc2nnn[nH]2)c1O
3. CC(=O)c1cccc(C(=O)Nc2nnn[nH]2)c1O

[43, 75, 64]

* * *

Test system: passive cutaneous anaphylactic (PCA) reaction
Assay: Passive cutaneous anaphylactic (PCA) reaction, reagin-allergen combination, in rats
Type: in vivo
Settings: Rattus norvegicus, intravenous, just before injection of allergen, read-out: ED100 (intravenous dose which produces 100% inhibition of the PCA reaction)
Property measured: ED100 (mg/kg)
Give bare numbers, in mg/kg.

* CSc1ccc(O)c(C(=O)Nc2nnn[nH]2)c1 | 0.5
* Cc1cccc(C(=O)Nc2nnn[nH]2)c1O | 0.5
* O=Cc1cccc(C(=O)Nc2nnn[nH]2)c1O | 0.5

List reported ED100 for each of these compounds:
1. CCC(C)c1cc(C(C)=O)c(O)c(C(=O)Nc2nnn[nH]2)c1 (stereo not drawn)
2. COc1ccc(O)c(C(=O)Nc2nnn[nH]2)c1
3. O=Cc1ccc(O)c(C(=O)Nc2nnn[nH]2)c1
4. CC(C)(C)c1ccc(C(=O)Nc2nnn[nH]2)c(O)c1
5. CC(=O)Nc1ccc(O)c(C(=O)Nc2nnn[nH]2)c1
6. COc1cccc(C(=O)Nc2nnn[nH]2)c1O

0.5
0.5
0.5
10
10
0.2

* * *

System: passive cutaneous anaphylactic (PCA) reaction
Assay: Passive cutaneous anaphylactic (PCA) reaction, reagin-allergen combination, in rats
Format: in vivo
Details: Rattus norvegicus, intravenous, just before injection of allergen, read-out: ED100 (intravenous dose which produces 100% inhibition of the PCA reaction)
Property measured: ED100 (mg/kg)
Give bare numbers, in mg/kg.

Below are worked cases with known answers.
- Cc1ccc(C(=O)Nc2nnn[nH]2)c(O)c1: 10
- CC(C)(C)NC(=O)c1cccc(C(=O)Nc2nnn[nH]2)c1O: 5

Please state, for each entry, its recorded ED100.
1. O=C(Nc1nnn[nH]1)c1cc(O)ccc1O [AF, 2,5-dihydroxy-N-(tetrazol-5-yl)benzamide]
2. O=C(Nc1nnn[nH]1)c1ccc(F)cc1O

1. 1
2. 10

* * *

Consider the following molecules; for each one, report its ED50.
Tested on: passive cutaneous anaphylactic (PCA) reaction
Experiment: Passive cutaneous anaphylactic (PCA) reaction, reagin-allergen combination, in rats
Format: in vivo
Conditions: Rattus norvegicus, oral, thirty minutes before intravenous allergen, read-out: ED50 (oral dose which produces 50% inhibition of the PCA reaction)
Give bare numbers, in mg/kg.

* CC(=O)c1cc(C(C)(C)C)cc(C(=O)Nc2nnn[nH]2)c1O | 2.6
* CC(=O)c1cc(C)cc(C(=O)Nc2nnn[nH]2)c1O | 0.75

Proceed to the following item.
Item Cc1cccc(C(=O)Nc2nnn[nH]2)c1O has what recorded ED50?
10
